Data provenance is patent US20250250328A1.

target: HIV-1 envelope X2088.C9 (HIV-1); assay: cell-based or functional assay
recordedMetric: IC50, PSV assay (nM)
State just the number; it will be interpreted in nM.

| binder | IC50, PSV assay / nM |
| --- | --- |
| bNAb15 (antibody, V domains shown) VH: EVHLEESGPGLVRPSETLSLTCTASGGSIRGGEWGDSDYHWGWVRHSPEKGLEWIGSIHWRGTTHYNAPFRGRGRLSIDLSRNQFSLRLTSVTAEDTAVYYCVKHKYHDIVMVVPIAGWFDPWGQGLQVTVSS VL: EIMMTQSPAILSVSPGDRATLSCRASQSVKNNLAWYQKRPGQAPRLLIFDTSSRASGIPARFSGGGSGTEFTLTVNSMQSEDFATYYCQQYEEWPRTFGQGTKVEIKR | 2.58 |
| bNAb16 (antibody, V domains shown) VH: EVQLVESGGGLVKPGGSLRLTCVASGFTFSDVWLNWVRQAPGKGLEWVGRIKSRTDGGTTDYAASVKGRFTISRDDSKNTLYLQMNSLKTEDTAVYSCTTDGFIMIRGVSEDYYYYYMDVWGKGTTVTVSS VL: QSVLTQPPSVSAAPGQKVTISCSGSSSNIGNNYVLWYQQFPGTAPKLLIYGNNKRPSGIPDRFSGSKSGTSATLGITGLQTGDEADYFCATWDSGLSADWVFGGGTKLTVLG | 289 |
| bNAb14 (antibody, V domains shown) VH: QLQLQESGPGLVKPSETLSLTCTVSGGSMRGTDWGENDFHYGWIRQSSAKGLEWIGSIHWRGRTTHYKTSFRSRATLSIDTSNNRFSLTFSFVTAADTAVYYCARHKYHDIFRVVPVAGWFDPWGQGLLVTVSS VL: EIVMTQSPPTLSVSPGETATLSCRASQNVKNNLAWYQLKPGQAPRLLIFDASSRAGGIPDRFSGSGYGTDFTLTVNSVQSEDFGDYFCQQYEEWPRTFGQGTKVDIKR | 2.79 |

Consider the record given below.
Qu. Return IC50, PSV assay (reported value) for this binder: bNAb18 (antibody, V domains shown) VH: QVQLVQSGAEVRKPGSSVTISCKPVGGTFTNFAIHWVRQAPGQGLEWVGGRVPVVGIYKYGKKFHDRLRLYEDDPMKTVFLELRSLTSDDTGVYYCTRWRGCGMCPYDTSSYYNDASDVWGPGTKVIVSA VL: EIVLTQSPVTLSLSSGETGTLSCRASQNISSSWIAWYQQRRGQVPRLLISAASARAAGIPDRFTGRGSGTDFTLTITRLEPEDFGVYSCQYYGGSFFTFGPGTQVDVKR
Ans. 0.2
